# Tested on: Fusarium solani
# Experiment description: Mycelial growth test
# Format: cell-based
# Setup conditions: Fusarium solani, 72 h, PS, 5 ppm, 72 hours; read-out: Percent Fungus Growth Inhibition
Endpoint name: inhibition at 5 ppm

INSERT INTO measurements (molecule, endpoint_result) VALUES
  ('CC(=O)Nc1ccccc1Oc1nsnc(Cl)c1=O', '0%'),
  ('N#Cc1c(Cl)c(Cl)c(Cl)c(C#N)c1Cl [Chlorothalonil, reference compound]', '41%'),
  ('Cc1ccccc1Oc1nsnc(Cl)c1=O', '17%'),
  ('O=c1c(Cl)nsnc1Oc1ccccc1Cl', '44%'),
  ('COc1ccc(Oc2nsnc(Cl)c2=O)cc1', '18%'),
  ('O=c1c(Cl)nsnc1Oc1cccc2ccccc12', '100%'),
  ('O=c1c(Cl)nsnc1Oc1c(Cl)cccc1Cl', '41%'),
  ('O=c1c(Cl)nsnc1Oc1cccc(C(F)(F)F)c1', '100%'),
  ('O=c1c(Cl)nsnc1Cl', '100%'),
  ('CC(C)(C)c1ccc(Oc2nsnc(Cl)c2=O)cc1', '0%'),
  ('Cc1cc(C)cc(Oc2nsnc(Cl)c2=O)c1', '50%'),
  ('N#CCc1ccc(Oc2nsnc(Cl)c2=O)cc1', '35%'),
  ('Cc1cc(Oc2nsnc(Cl)c2=O)cc(C)c1Cl', '50%'),
  ('O=c1c(Cl)nsnc1Oc1ccc([N+](=O)[O-])cc1', '65%'),
  ('Cc1cc(Oc2nsnc(Cl)c2=O)cc(C)c1Br', '63%'),
  ('O=c1c(Cl)nsnc1Oc1c(Cl)c(Cl)c(Cl)c(Cl)c1Cl', '42%'),
  ('O=c1c(Cl)nsnc1Oc1cccc(Cl)c1Cl', '50%'),
  ('Cc1ccc(Oc2nsnc(Cl)c2=O)c(Br)c1', '88%'),
  ('N#Cc1ccc(Oc2nsnc(Cl)c2=O)cc1', '17%'),
  ('CSc1ccc(Oc2nsnc(Cl)c2=O)cc1', '42%');

Ref: patent US4450269A
